The measured values listed here are drawn from patent EP3860599B1.

- assay: Plasma concentrations after oral dosing (solution in apple juice) of human volunteers, Example 1A
- Assay type: in vivo
- measurement_context: human, plasma, po, 7.5 mg, subject 5 (91 kg); 7.5 mg oral; 1 h
value_kind: concentration at 1 h (ng/mL)

1) COc1cc2c(cc1OC)[C@H]1C[C@@H](O)[C@H](CC(C)C)CN1CC2 [(+)-α-dihydrotetrabenazine] :: 9.8

====

- assay: Plasma concentrations after oral dosing (solution in apple juice) of human volunteers, Example 1A
- Format: in vivo
- measurement_context: human, plasma, po, 7.5 mg, subject 6 (68 kg); 7.5 mg oral; 2 h
value_kind: concentration at 2 h (ng/mL)

1) COc1cc2c(cc1OC)[C@H]1C[C@@H](O)[C@H](CC(C)C)CN1CC2 [(+)-α-dihydrotetrabenazine] :: 4.33
